The origin of these recorded values is patent US20190225650A1.

List of IC50 values.
- target_of_assay: flag-tagged HIF1α (AA 786-826) / His6-tagged p300 (AA 323-423) complex (Homo sapiens, UniProt Q09472)
- Construct: His6-tagged p300 (AA 323-423); made in house; host or cells: E. coli (pETDuet vector)
- protocol: HIF1α p300 displacement assay (TR FRET, +CHAPS)
- Assay type: binding
- measurement_parameters: read-out: IC50 (nM) (HIF1α_p300 Displacement + CHAPS)
Bridge positions count the residues as written; N and C are the ends. Square brackets hold non-standard residues; d marks the D form. Peptide text beside a SMILES is read from it. R8 = C=CCCCCCC[C@@](C)(N)C(=O)O; S5 = C=CCCC[C@](C)(N)C(=O)O

[
  {
    "compound": "CC[C@H](C)[C@H](NC(=O)[C@H](Cc1ccccc1)NC(C)=O)C(=O)N[C@@H](CC(=O)O)C(=O)N[C@@H](CCC(=O)O)C(=O)N[C@@H](CCC(=O)O)C(=O)N[C@H](C(=O)N[C@@H](CC(C)C)C(=O)N[C@@H](CCSC)C(=O)N[C@@]1(C)CCCC=CCCC[C@@](C)(C(=O)N[C@@H](CCSC)C(=O)N[C@@H](C)C(=O)N[C@@H](CC(C)C)C(N)=O)NC(=O)[C@H]([C@@H](C)CC)NC(=O)[C@H](C(C)C)NC(=O)[C@H](CC(C)C)NC1=O)C(C)C [SP-7] (Ac-FIDEEVLM[S5]LVI[S5]MAL-NH2; staple 9-13)",
    "IC50": "400 to 700 nM"
  }
]

Let us move to another entry and its IC50.
According to the records, this compound CC[C@H](C)[C@H](NC(=O)[C@H](Cc1ccccc1)NC(C)=O)C(=O)N[C@@H](CC(=O)O)C(=O)N[C@@H](CCC(=O)O)C(=O)N[C@]1(C)CCCCCCC=CCCC[C@@](C)(C(=O)N[C@@H](CCC(=O)O)C(=O)N[C@@H](CCSC)C(=O)N[C@@H](C)C(=O)N[C@@H](C)C(N)=O)NC(=O)[C@H](C(C)C)NC(=O)[C@H](CC(C)C)NC(=O)[C@H](CO)NC(=O)[C@H](CCSC)NC(=O)[C@H](CC(C)C)NC(=O)[C@H](C(C)C)NC1=O [SP-178] (Ac-FIDE[R8]VLMSLV[S5]EMAA-NH2; staple 5-12) displays IC50 of > 700 nM
